B1: INTS4 (parent)
chain: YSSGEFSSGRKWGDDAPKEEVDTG

variants of: B1; assay: protein stability index of a GFP-peptide fusion (GPS, HEK-293T) (PSI 1-6); higher = more stable; conditions: c terminus: a fixed tail appended;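 further: lentivirally expressed fusions sorted by FACS into six bins by GFP to DsRed ratio, PSI derived from sequencing read proportions per bin multiplied by bin number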
Label rule, in plain words: protein stability index of 3 and up is yes (1), under 3 is no (0).

Example entries begin here.
- variant-string: "A16P"
  group-label: "no (0)"
- variant-string: "V21C"
  group-label: "yes (1)"
- variant-string: "S8Y"
  group-label: "no (0)"
- variant-string: "Y1Q"
  group-label: "yes (1)"
- variant-string: "S3K"
  group-label: "yes (1)"

q: Does the variant F6A have recorded protein stability index that is 3 or more?
a: yes (1)

q: Does the variant K18G have recorded protein stability index that is 3 or more?
a: yes (1)
